Molecular target: human NCX1 (Homo sapiens, UniProt P32418)
Construct: expressed in transfected cells
Experiment: NCX1 inhibition, reverse mode (Ca2+ influx into cells), FLIPR Fluo-4 assay
Assay type: cell-based
Conditions: inhibition of NCX1 in reverse mode (Ca2+ influx into cells); read-out: NCX1rv IC50
pIC50: −log10 of the molar value. Where a name gives a salt, the structure may show the parent alone.
Catalogue of pIC50 readings, one per entry.
MEASUREMENT_KIND: pIC50

| MOLECULE | RECORDED_NUMBER |
| --- | --- |
| Cc1n[nH]c(C)c1S(=O)(=O)NCc1cnc(Oc2ccc3c(c2)CCC(c2ccccc2)O3)s1 (centres unmarked) | 4.62 |
| O=C(NCC1CCCCN1)c1cnc(Oc2ccc3c(c2)CC[C@@H](c2ccccc2)O3)s1 (some centres unmarked) | 6.30 |
| Cc1noc(C)c1CCCNCc1cnc(Oc2ccc3c(c2)CCC(c2ccccc2)O3)s1 (centres unmarked) | 6.30 |
| COC(=O)C(C)(CC(C)C)NC(=O)c1cnc(Oc2ccc3c(c2)CC[C@@H](c2ccccc2)O3)s1 (some centres unmarked) | 5.82 |
| Cn1nccc1CNCc1cnc(Oc2ccc3c(c2)CCC(c2ccccc2)O3)s1 (centres unmarked) | 6.70 |
| O=C(NCc1ccncc1)c1cnc(Oc2ccc3c(c2)CCC(c2cccc(F)c2)O3)s1 (centres unmarked) [Example 18, hydrochloride] | 6.70 |
| O=C(NCCO)c1cnc(Oc2ccc3c(c2)CC[C@@H](c2ccccc2)O3)s1 | 7.00 |
| CCc1ccccc1C1CCc2cc(Oc3ncc(C(=O)NCc4ccno4)s3)ccc2O1 (centres unmarked) | 6.30 |
| Cc1c(C(C)NC(=O)c2cnc(Oc3ccc4c(c3)CCC(c3ccccc3)O4)s2)cnn1C (centres unmarked) | 6.10 |
| CN(Cc1ccnc(N2CCCC2)c1)C(=O)c1cnc(Oc2ccc3c(c2)CCC(c2ccccc2)O3)s1 (centres unmarked) | 6.52 |
| Cc1ccc(F)cc1C1CCc2cc(Oc3ncc(C(=O)NCCN4CCNC4=O)s3)ccc2O1 (centres unmarked) | 6.70 |
| Cc1ccccc1C1CCc2cc(Oc3nc(C)c(C(=O)NCCN4CCNC4=O)s3)ccc2O1 (centres unmarked) | 6.22 |
| Cc1csc(CCNCc2cnc(Oc3ccc4c(c3)CCC(c3ccccc3)O4)s2)n1 (centres unmarked) | 6.40 |
| c1ccc(C2CCc3cc(Oc4ncc(CNCc5cccnc5N5CCOCC5)s4)ccc3O2)cc1 (centres unmarked) | 6.05 |
| Cc1cc(NCc2cnc(Oc3ccc4c(c3)CCC(c3ccccc3)O4)s2)on1 (centres unmarked) | 6.10 |
| OCCN(CCO)Cc1cnc(Oc2ccc3c(c2)CCC(c2ccccc2)O3)s1 (centres unmarked) | 6.10 |
| CCOC(=O)[C@@H](NC(=O)c1cnc(Oc2ccc3c(c2)CC[C@@H](c2ccccc2)O3)s1)C(C)C | 6.15 |
| Cc1nn(C)cc1C(C)NC(=O)c1cnc(Oc2ccc3c(c2)CCC(c2ccccc2)O3)s1 (centres unmarked) | 6.10 |
| C[C@H](N)C(=O)NCc1cnc(Oc2ccc3c(c2)CC[C@@H](c2ccccc2)O3)s1 | 6.52 |
| c1ccc(C2CCc3cc(Oc4ncc(CN5CCOCC5)s4)ccc3O2)cc1 (centres unmarked) | 6.52 |
| c1ccc(C2CCc3cc(Oc4ncc(CN5CCCC5)s4)ccc3O2)cc1 (centres unmarked) | 6.40 |
| CCn1nccc1CNC(=O)c1cnc(Oc2ccc3c(c2)CCC(c2cccc(OC)c2F)O3)s1 (centres unmarked) | 5.82 |
| O=C(CN1C(=O)CNC1=O)NCc1cnc(Oc2ccc3c(c2)CCC(c2ccccc2)O3)s1 (centres unmarked) | 6.22 |
| O=C(NC(CCO)C1CC1)c1cnc(Oc2ccc3c(c2)CC[C@@H](c2ccccc2)O3)s1 (some centres unmarked) | 6.52 |
| CC(O)CNC(=O)c1cnc(Oc2ccc3c(c2)CCC(c2ccccc2)O3)s1 (centres unmarked) | 6.80 |
| COC(=O)[C@H](O)[C@H](CC(C)C)NC(=O)c1cnc(Oc2ccc3c(c2)CC[C@@H](c2ccccc2)O3)s1 | 6.15 |
| CN1CC(=O)N(CC(=O)NCc2cnc(Oc3ccc4c(c3)CCC(c3ccccc3)O4)s2)C1=O (centres unmarked) | 6.15 |
| Cc1ncsc1CCNC(=O)c1cnc(Oc2ccc3c(c2)CCC(c2ccccc2)O3)s1 (centres unmarked) | 6.52 |
| CC1(C)CN(C(=O)c2cnc(Oc3ccc4c(c3)CC[C@@H](c3ccccc3)O4)s2)CCN1 | 5.92 |
| O=C(c1cnc(Oc2ccc3c(c2)CC[C@@H](c2ccccc2)O3)s1)N1CCCCC1 | 6.40 |
| FC(F)(F)CNCc1cnc(Oc2ccc3c(c2)CCC(c2ccccc2)O3)s1 (centres unmarked) | 6.70 |
| Nc1cc(CNC(=O)c2cnc(Oc3ccc4c(c3)CCC(c3ccccc3)O4)s2)ccn1 (centres unmarked) | 6.40 |
